Values compiled from patent US20050226874A1.

assayed.system: T1, soluble human recombinant CD4 expressed in baculovirus (human, UniProt P01730 26-396, limits assumed)
T1 construct: Coated on plates for the ELISA and covalently immobilised on the sensor for BIAcore; Only called soluble; also called soluble CD4; CD4 expressed in the baculovirus
measurement.notes: SPR (BIAcore), CD4 immobilised
value.type: pKd
By convention, pKd is the negative base-10 log of a molar concentration.

Below, each entry is followed by its recorded pKd result.
mutant Fab F100K-H of the 13B8.2 antibody (Fab, V domains shown, Chimeric Fab with human CH1-γ1 and Cκ; baculovirus/Sf9) VH: QVQLKQSGPGLVQPSQSLSITCTVSGFSLTTFGVHWVRQSPGKGLEWLGVIWRSGITDYNVPFMSRLSITKDNSKSQVFFKLNSLQPDDTAIYYCAKNDPGTGAAYWGQGTLVTVSA VL: DIQMTQSPASLSASVGETVTFTCRASENIYSYLAWYQQKQGKSPQLLVHDAKTLAEGVPSRFSGGGSGTQFSLKINTLQPEDFGTYYCQHHYGNPPTFGGGTKLEIK :: 6.07
mutant Fab R38-H of the 13B8.2 antibody (Fab, V domains shown, Chimeric Fab with human CH1-γ1 and Cκ; baculovirus/Sf9) VH: QVQLKQSGPGLVQPSQSLSITCTVSGFSLTTFGVHWVAQSPGKGLEWLGVIWRSGITDYNVPFMSRLSITKDNSKSQVFFKLNSLQPDDTAIYYCAKNDPGTGFAYWGQGTLVTVSA VL: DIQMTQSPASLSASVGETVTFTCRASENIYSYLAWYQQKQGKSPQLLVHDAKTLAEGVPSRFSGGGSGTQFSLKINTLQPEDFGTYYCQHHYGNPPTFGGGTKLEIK :: 6.07

Could you now look at the following binder, please?
Value of measured pKd for the entry mutant Fab H35-H of the 13B8.2 antibody (Fab, V domains shown, Chimeric Fab with human CH1-γ1 and Cκ; baculovirus/Sf9) VH: QVQLKQSGPGLVQPSQSLSITCTVSGFSLTTFGVAWVRQSPGKGLEWLGVIWRSGITDYNVPFMSRLSITKDNSKSQVFFKLNSLQPDDTAIYYCAKNDPGTGFAYWGQGTLVTVSA VL: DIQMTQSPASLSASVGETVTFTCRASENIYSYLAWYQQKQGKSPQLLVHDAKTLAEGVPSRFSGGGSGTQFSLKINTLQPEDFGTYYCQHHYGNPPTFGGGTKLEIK : 5.20
